Molecular target: Neurogenic locus notch homolog protein 3 (Homo sapiens)
Test: NOTCH3 binders on small-molecule microarray, primary screen, biochemical, 635/667 nm fluorescence (AID 1096)
Conditions: NOTCH3 binding, 635 nm fluorescence, higher = more signal
# label = 1.0 if composite z-score >= 0.5 else 0.0

{"columns": ["compound", "category"],
 "data": [
  ["CC(C)[C@@H](OCc1ccccc1)[C@H](C)C=NO[C@@H](C)c1cn([C@H](CO)Cc2ccccc2)nn1", 1.0],
  ["CCc1cc2c(nc1CC)CCN(CCC(C)=NOC(C)CN1CCCCc3nc(C)c(C)cc31)C2 (stereo unspecified)", 1.0],
  ["CCOC(=O)[C@H](CC(C)C)NC(=O)CCC1CC(OC(=O)NCCc2ccc(F)cc2)CC2(CCCC(COC(=O)NCc3cccc4ccccc34)O2)O1 (stereo partly specified)", 0.0],
  ["C[C@@H]1C=CCC(=O)OC[C@H](C)C(=O)N[C@@H](Cc2ccccc2)C(=O)OC1", 0.0],
  ["CC(C)CON=C1C[C@@H](O)[C@@H](O)[C@@H]2[C@@H]3C(=O)N(Cc4ccccc4)C(=O)[C@@H]3CC[C@H]12", 1.0],
  ["O=C1[C@H]2[C@H]3[C@H](O)[C@H](O)CC(=NOC[C@@H](O)COCc4ccco4)[C@@H]3CC[C@H]2C(=O)N1C1CCCCC1", 0.0]
]}
